test system: West Nile virus; assay: Inhibition of WNV NS2B/NS3 protease using Bz-Nle-Lys-Arg-Arg-AMC as substrate at 25 uM by spectrofluorometric analysis relative to control
# inhibition >= 60% gives True, anything below gives False

Some solved entries appear below for comparison.
1. O=c1c2ccccc2sn1C(Cc1ccccc1)c1nnc(-c2ccncc2)o1 (stereo not drawn); True
2. O=c1c2ccccc2sn1C(Cc1ccccc1)c1nnc(-c2ccccc2)o1 (stereo not drawn); True
3. COc1ccc(Cc2nnc(Cn3sc4ccccc4c3=O)o2)cc1; False
4. O=c1c2ccccc2sn1Cc1nnc(-c2cccc(Cl)c2)o1; False
5. CCc1nnc(C(Cc2ccccc2)n2sc3ccccc3c2=O)o1 (stereo not drawn); False
6. COc1ccc(Cc2nnc(C(Cc3ccccc3)n3sc4ccccc4c3=O)o2)cc1 (stereo not drawn); False
7. CCOc1ccc(-c2nnc(C(Cc3ccccc3)n3sc4ccccc4c3=O)o2)cc1 (stereo not drawn); True
8. O=c1c2ccccc2sn1Cc1nnc(Cc2ccccc2)o1; False

In: Answer whether inhibition of O=c1c2ccccc2sn1C(Cc1ccccc1)c1nnc(-c2ccco2)o1 (stereo not drawn) is greater than or equal to 60%.
Out: False

In: Also CCCc1nnc(C(Cc2ccccc2)n2sc3ccccc3c2=O)o1 (stereo not drawn) ?
Out: False

In: Quick one: O=c1c2ccccc2sn1C(Cc1ccccc1)c1nnc(-c2cccc(Cl)c2)o1 (stereo not drawn)
Out: False

---

tested on: West Nile virus; assay: Inhibition of WNV NS2B/NS3 protease using Bz-Nle-Lys-Arg-Arg-AMC as substrate at 25 uM by spectrofluorometric analysis relative to control
assay-endpoint: inhibition

Take a look at these entries with their results.
1. O=c1c2ccccc2sn1C(Cc1ccccc1)c1nnc(-c2cccs2)o1 (configuration not stated); 59.7%
2. O=c1c2ccccc2sn1C(Cc1ccccc1)c1nnc(-c2cccc(F)c2)o1 (configuration not stated); 38.9%
3. O=c1c2ccccc2sn1C(Cc1ccccc1)c1nnc(-c2cccnc2)o1 (configuration not stated); 62.5%

In: Need inhibition, item COc1ccc(-c2nnc(C(Cc3ccccc3)n3sc4ccccc4c3=O)o2)cc1 (configuration not stated)
Out: 73.4%

In: Now give it for O=c1c2ccccc2sn1C(Cc1ccccc1)c1nnc(Cc2ccccc2)o1 (configuration not stated) too.
Out: 30.1%

In: Now this one: O=c1c2ccccc2sn1Cc1nnc(-c2cccc(F)c2)o1
Out: 10.1%

In: Could you do the same for O=c1c2ccccc2sn1C(CCc1ccccc1)c1nnc(-c2cccc(Cl)c2)o1 (configuration not stated) , please?
Out: 33.9%

Measured values drawn from ChEMBL document CHEMBL2311301 for this set.
